Values were extracted from patent US8003704B2.

Biological target: low Km AlDH from rat liver (Rattus norvegicus)
Construct: using a preparation from rat liver containing both Low Km and high Km AlDH; from tissue; host or cells: rat liver preparation
Sequence (P11884 20-519): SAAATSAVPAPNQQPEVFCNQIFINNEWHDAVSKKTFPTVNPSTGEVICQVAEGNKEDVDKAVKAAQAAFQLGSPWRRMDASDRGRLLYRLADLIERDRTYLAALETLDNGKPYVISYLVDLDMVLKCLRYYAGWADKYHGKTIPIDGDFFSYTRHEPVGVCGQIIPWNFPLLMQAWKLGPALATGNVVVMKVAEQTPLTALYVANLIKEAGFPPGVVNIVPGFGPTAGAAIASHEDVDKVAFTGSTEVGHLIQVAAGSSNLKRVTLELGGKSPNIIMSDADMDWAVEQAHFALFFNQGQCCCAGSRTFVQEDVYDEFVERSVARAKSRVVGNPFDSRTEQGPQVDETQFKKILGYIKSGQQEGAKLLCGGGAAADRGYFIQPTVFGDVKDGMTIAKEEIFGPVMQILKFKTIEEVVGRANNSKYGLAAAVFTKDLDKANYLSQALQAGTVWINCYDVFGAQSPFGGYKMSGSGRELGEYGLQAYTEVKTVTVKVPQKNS
Assay: Inhibition of mammalian mitochondrial (low Km) AlDH in rat liver preparation
Assay type: biochemical
Settings: Example 4, rat liver low Km AlDH, 5 μM acetaldehyde, 2 μM concentration
Protocol: Experiments were therefore performed using a preparation from rat liver in which both the low Km and the high Km enzymes can be measured simultaneously, but at different substrate (acetaldehyde) concentrations, namely, 5 μM for the low Km and 5 mM for the high Km, enzyme.
ENDPOINT_LABEL: inhibition of activity of the low Km enzyme (%)

{"COMPOUND": "Nc1c(O)cccc1C(=O)O [3-hydroxyanthranilic acid]", "UNIT_OF_MEASURE": "%", "VALUE_REPORTED": 46}
{"COMPOUND": "O=C(O)c1cc(=O)c2ccccc2[nH]1", "UNIT_OF_MEASURE": "%", "VALUE_REPORTED": 40}
{"COMPOUND": "O=C(O)C(=O)Cc1c[nH]c2ccccc12", "UNIT_OF_MEASURE": "%", "VALUE_REPORTED": 30}
{"COMPOUND": "Nc1c(O)cccc1C(=O)CC(N)C(=O)O (centres unmarked) [3-hydroxykynurenine]", "UNIT_OF_MEASURE": "%", "VALUE_REPORTED": 55}
